Biological target: Alpha-1A adrenergic receptor (Homo sapiens)
Sequence (P35348 whole entry): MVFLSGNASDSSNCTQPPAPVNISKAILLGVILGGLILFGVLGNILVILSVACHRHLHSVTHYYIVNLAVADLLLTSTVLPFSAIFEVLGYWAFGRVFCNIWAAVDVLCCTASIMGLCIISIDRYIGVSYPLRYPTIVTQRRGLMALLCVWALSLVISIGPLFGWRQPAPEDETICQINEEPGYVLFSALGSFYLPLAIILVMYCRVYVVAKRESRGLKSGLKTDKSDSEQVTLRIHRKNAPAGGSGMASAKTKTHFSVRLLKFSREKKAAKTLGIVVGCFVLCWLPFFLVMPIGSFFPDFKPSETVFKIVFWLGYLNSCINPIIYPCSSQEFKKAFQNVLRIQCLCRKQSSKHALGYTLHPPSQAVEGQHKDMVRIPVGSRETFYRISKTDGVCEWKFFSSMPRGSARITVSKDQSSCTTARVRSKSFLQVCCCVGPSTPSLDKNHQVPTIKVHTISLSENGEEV
pKi: −log10 of the molar value.
measured-attribute: pKi

>>> observed_result("COc1cccc(OC)c1OCCNCCOc1ccccc1OCc1ccc([N+](=O)[O-])cc1")
8.90
>>> observed_result("COc1cccc(OC)c1OCCNCCOc1ccccc1OCc1ccccc1[N+](=O)[O-]")
8.10
>>> observed_result("COc1cccc(COc2ccccc2OCCNCCOc2c(OC)cccc2OC)c1")
8.70
>>> observed_result("COc1cccc(OC)c1OCCNCCOc1ccccc1OCc1cccc([N+](=O)[O-])c1")
9.50
>>> observed_result("COc1ccccc1COc1ccccc1OCCNCCOc1c(OC)cccc1OC")
8.70
>>> observed_result("COc1cccc(OC)c1OCCNCCOc1ccccc1OCc1ccccc1Cl")
8.85
>>> observed_result("COc1cccc(OC)c1OCCNCCOc1ccccc1OCc1cccc(Cl)c1")
9.60
>>> observed_result("COc1cccc(OC)c1OCCNCCOc1ccccc1OCc1ccc(C)cc1")
8.70
